# SYSTEM: E. coli β clamp (Escherichia coli, UniProt P0A988)
# Construct: made in house; host or cells: E. coli BL21 (β); P1 by solid-phase synthesis
# Sequence (P0A988 whole entry): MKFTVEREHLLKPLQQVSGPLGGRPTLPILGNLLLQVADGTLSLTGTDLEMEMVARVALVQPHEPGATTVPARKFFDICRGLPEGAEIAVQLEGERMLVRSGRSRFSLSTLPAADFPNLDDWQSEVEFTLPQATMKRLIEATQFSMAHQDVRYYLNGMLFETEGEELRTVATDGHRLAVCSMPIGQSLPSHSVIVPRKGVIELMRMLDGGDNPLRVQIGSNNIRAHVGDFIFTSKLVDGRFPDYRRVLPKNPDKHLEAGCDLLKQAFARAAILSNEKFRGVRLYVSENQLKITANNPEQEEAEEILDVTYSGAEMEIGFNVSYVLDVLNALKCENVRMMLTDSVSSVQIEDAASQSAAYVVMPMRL
# ASSAY_REMARKS: SPR competition assay: inhibition of P1-β interaction by challenging peptides
# Format: binding
# RECORDED_CONDITIONS: IC50 (μM), SPR, inhibition of binding of β ring (0.25 μM) to immobilized P1
Square brackets hold non-standard residues; d marks the D form. Peptide text beside a SMILES is read from it. Phe(3,4-Cl2) = N[C@@H](Cc1ccc(Cl)c(Cl)c1)C(=O)O; Cha = N[C@@H](CC1CCCCC1)C(=O)O; hLeu = CC(C)CC[C@H](N)C(=O)O
MEASUREMENT_NAME: IC50

Below, 3 compounds whose answers are already recorded.
INSERT INTO assay_data (compound, result) VALUES
  ('CC(=O)N[C@@H](CCC(N)=O)C(=O)N[C@@H](CC1CCCCC1)C(=O)N[C@@H](CC(=O)O)C(=O)N[C@@H](CC1CCCCC1)C(=O)N[C@@H](Cc1ccccc1)C(=O)O [Peptide P17, Ac Q Cha D Cha F] (Ac-Q[Cha]D[Cha]F-OH; C-terminus assumed)', '0.31 µM'),
  ('CC(=O)N[C@@H](CCC(N)=O)C(=O)N[C@@H](CC1CCCCC1)C(=O)N[C@@H](CC(=O)O)C(=O)N[C@@H](CC(C)C)C(=O)N[C@@H](Cc1ccc(Cl)c(Cl)c1)C(=O)O [Peptide P14, Ac-Gln-Cha-Asp-Leu-(3,4-di-Cl)Phe-OH] (Ac-Q[Cha]DL[Phe(3,4-Cl2)]-OH)', '0.077 µM'),
  ('CC(=O)N[C@@H](CCC(N)=O)C(=O)N[C@@H](CC1CCCCC1)C(=O)N[C@@H](CC(=O)O)C(=O)N[C@@H](CC(C)C)C(=O)N[C@@H](Cc1ccccc1)C(=O)O [Peptide P7, Ac-Gln-Cha-Asp-Leu-Phe-OH] (Ac-Q[Cha]DLF-OH)', '0.17 µM');

Q: Give the value of IC50 reported for the following: CC(=O)N[C@@H](CCC(N)=O)C(=O)N[C@@H](CC1CCCCC1)C(=O)N[C@@H](CC(=O)O)C(=O)N[C@@H](CCC(C)C)C(=O)N[C@@H](Cc1ccccc1)C(=O)O [Peptide P16, Ac Q Cha D hLeu F] (Ac-Q[Cha]D[hLeu]F-OH; C-terminus assumed)
A: 0.23 µM

====

# SYSTEM: E. coli β clamp (Escherichia coli, UniProt P0A988)
# Construct: made in house; host or cells: E. coli BL21 (β); P1 by solid-phase synthesis
# ASSAY_REMARKS: SPR competition assay: inhibition of P1-β interaction by challenging peptides
# Format: binding
# RECORDED_CONDITIONS: IC50 (μM), SPR, inhibition of binding of β ring (0.25 μM) to immobilized P1
Square brackets hold non-standard residues; d marks the D form. Peptide text beside a SMILES is read from it. hCha = N[C@@H](CCC1CCCCC1)C(=O)O; tBuAla = CC(C)(C)C[C@H](N)C(=O)O
Documented IC50 across a set of molecules

INSERT INTO assay_data (molecule, measurement_name, result) VALUES
  ('CC(=O)N[C@@H](CCC(N)=O)C(=O)N[C@@H](CCC1CCCCC1)C(=O)N[C@@H](CC(=O)O)C(=O)N[C@@H](CC(C)C)C(=O)N[C@@H](Cc1ccccc1)C(=O)O [Peptide P8, Ac-Gln-hCha-Asp-Leu-Phe-OH] (Ac-Q[hCha]DLF-OH)', 'IC50', '82.8 µM'),
  ('CC(=O)N[C@@H](CCC(N)=O)C(=O)N[C@@H](CC(C)(C)C)C(=O)N[C@@H](CC(=O)O)C(=O)N[C@@H](CC(C)C)C(=O)N[C@@H](Cc1ccccc1)C(=O)O [Peptide P10, Ac-Gln-NptGly-Asp-Leu-Phe-OH] (Ac-Q[tBuAla]DLF-OH)', 'IC50', '0.99 µM');

Let us examine a further case.
Q: Give the value of IC50 reported for the following: CC(=O)N[C@@H](CCC(N)=O)C(=O)N[C@@H](CCC(C)C)C(=O)N[C@@H](CC(=O)O)C(=O)N[C@@H](CC(C)C)C(=O)N[C@@H](Cc1ccccc1)C(=O)O [Peptide P9, Ac-Gln-Hol-Asp-Leu-Phe-OH]
A: 0.74 µM

====

# SYSTEM: E. coli β clamp (Escherichia coli, UniProt P0A988)
# Construct: made in house; host or cells: E. coli BL21 (β); P1 by solid-phase synthesis
# ASSAY_REMARKS: SPR competition assay: inhibition of P1-β interaction by challenging peptides
# Format: binding
# RECORDED_CONDITIONS: SPR; ΔG = −RT ln Ki
Square brackets hold non-standard residues; d marks the D form. Peptide text beside a SMILES is read from it. Phe(3,4-Cl2) = N[C@@H](Cc1ccc(Cl)c(Cl)c1)C(=O)O; Phe(4-Br) = N[C@@H](Cc1ccc(Br)cc1)C(=O)O; Phe(4-Cl) = N[C@@H](Cc1ccc(Cl)cc1)C(=O)O; Phe(4-Me) = Cc1ccc(C[C@H](N)C(=O)O)cc1; hCha = N[C@@H](CCC1CCCCC1)C(=O)O; tBuAla = CC(C)(C)C[C@H](N)C(=O)O; Cha = N[C@@H](CC1CCCCC1)C(=O)O
MEASUREMENT_NAME: ΔG

INSERT INTO measurements (compound, result) VALUES
  ('CC(=O)N[C@@H](CCC(N)=O)C(=O)N[C@@H](CC1CCCCC1)C(=O)N[C@@H](CC(=O)O)C(=O)N[C@@H](CC(C)C)C(=O)N[C@@H](Cc1ccc(Br)cc1)C(=O)O [Peptide P13, Ac-Gln-Cha-Asp-Leu-pBrPhe-OH] (Ac-Q[Cha]DL[Phe(4-Br)]-OH)', '-9.71 kcal/mol'),
  ('CC(=O)N[C@@H](CCC(N)=O)C(=O)N[C@@H](CC1CCCCC1)C(=O)N[C@@H](CC(=O)O)C(=O)N[C@@H](CC(C)C)C(=O)N[C@@H](Cc1ccc(Cl)c(Cl)c1)C(=O)O [Peptide P14, Ac-Gln-Cha-Asp-Leu-(3,4-di-Cl)Phe-OH] (Ac-Q[Cha]DL[Phe(3,4-Cl2)]-OH)', '-9.85 kcal/mol'),
  ('CC(=O)N[C@@H](CCC(N)=O)C(=O)N[C@@H](CC(C)(C)C)C(=O)N[C@@H](CC(=O)O)C(=O)N[C@@H](CC(C)C)C(=O)N[C@@H](Cc1ccccc1)C(=O)O [Peptide P10, Ac-Gln-NptGly-Asp-Leu-Phe-OH] (Ac-Q[tBuAla]DLF-OH)', '-8.36 kcal/mol'),
  ('CC(=O)N[C@@H](CCC(N)=O)C(=O)N[C@@H](CC1CCCCC1)C(=O)N[C@@H](CC(=O)O)C(=O)N[C@@H](CC(C)C)C(=O)N[C@@H](Cc1ccc(C)cc1)C(=O)O [Peptide P11, Ac-Gln-Cha-Asp-Leu-pMePhe-OH] (Ac-Q[Cha]DL[Phe(4-Me)]-OH)', '-9.44 kcal/mol'),
  ('CC(=O)N[C@@H](CCC(N)=O)C(=O)N[C@@H](CC1CCCCC1)C(=O)N[C@@H](CC(=O)O)C(=O)N[C@@H](CC(C)C)C(=O)N[C@@H](Cc1ccc(Cl)cc1)C(=O)O [Peptide P12, Ac-Gln-Cha-Asp-Leu-pClPhe-OH] (Ac-Q[Cha]DL[Phe(4-Cl)]-OH)', '-9.73 kcal/mol');

Q: Give the value of ΔG reported for the following: CC(=O)N[C@@H](CCC(N)=O)C(=O)N[C@@H](CC1CCCCC1)C(=O)N[C@@H](CC(=O)O)C(=O)N[C@@H](CC(C)C)C(=O)N[C@@H](Cc1ccccc1)C(=O)O [Peptide P7, Ac-Gln-Cha-Asp-Leu-Phe-OH] (Ac-Q[Cha]DLF-OH)
A: -9.42 kcal/mol

Q: Give the value of ΔG reported for the following: CC(=O)N[C@@H](CCC(N)=O)C(=O)N[C@@H](CCC1CCCCC1)C(=O)N[C@@H](CC(=O)O)C(=O)N[C@@H](CC(C)C)C(=O)N[C@@H](Cc1ccccc1)C(=O)O [Peptide P8, Ac-Gln-hCha-Asp-Leu-Phe-OH] (Ac-Q[hCha]DLF-OH)
A: -5.74 kcal/mol

====

# SYSTEM: E. coli β clamp (Escherichia coli, UniProt P0A988)
# Construct: made in house; host or cells: E. coli BL21 (β); P1 by solid-phase synthesis
# ASSAY_REMARKS: SPR competition assay: inhibition of P1-β interaction by challenging peptides;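 note: SPR responses corrected for background, then fitted with a 1:1 Langmuir binding model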
# Type: binding
# RECORDED_CONDITIONS: IC50 (μM), SPR, inhibition of binding of β ring (0.25 μM) to immobilized P1
Square brackets hold non-standard residues; d marks the D form. Peptide text beside a SMILES is read from it. Phe(4-Br) = N[C@@H](Cc1ccc(Br)cc1)C(=O)O; Phe(4-Cl) = N[C@@H](Cc1ccc(Cl)cc1)C(=O)O; Phe(4-Me) = Cc1ccc(C[C@H](N)C(=O)O)cc1; hCha = N[C@@H](CCC1CCCCC1)C(=O)O; tBuAla = CC(C)(C)C[C@H](N)C(=O)O; Cha = N[C@@H](CC1CCCCC1)C(=O)O
Please assign 0 (no) whenever IC50 is at or above 0.6 µM, and 1 (yes) whenever it is below.

Recorded results for 3 molecules are shown here.
INSERT INTO results (molecule, cat) VALUES
  ('CC(=O)N[C@@H](CCC(N)=O)C(=O)N[C@@H](CC1CCCCC1)C(=O)N[C@@H](CC(=O)O)C(=O)N[C@@H](CC(C)C)C(=O)N[C@@H](Cc1c[nH]c2ccccc12)C(=O)O [Peptide P21, Ac-Q Cha DLW] (Ac-Q[Cha]DLW-OH; C-terminus assumed)', '0 (no)'),
  ('CC(=O)N[C@@H](CCC(N)=O)C(=O)N[C@@H](CC1CCCCC1)C(=O)N[C@@H](CC(=O)O)C(=O)N[C@@H](CC(C)C)C(=O)N[C@@H](Cc1ccc(C)cc1)C(=O)O [Peptide P11, Ac-Gln-Cha-Asp-Leu-pMePhe-OH] (Ac-Q[Cha]DL[Phe(4-Me)]-OH)', '1 (yes)'),
  ('CC(=O)N[C@@H](CCC(N)=O)C(=O)N[C@@H](CC1CCCCC1)C(=O)N[C@@H](CC(=O)O)C(=O)N[C@@H](CC(C)C)C(=O)N[C@@H](Cc1ccc(Cl)cc1)C(=O)O [Peptide P12, Ac-Gln-Cha-Asp-Leu-pClPhe-OH] (Ac-Q[Cha]DL[Phe(4-Cl)]-OH)', '1 (yes)');

Q: Field: below-cutoff. Rule: recorded IC50 strictly less than 0.6 µM. Subject: CC(=O)N[C@@H](CCC(N)=O)C(=O)N[C@@H](CC1CCCCC1)C(=O)N[C@@H](CC(=O)O)C(=O)N[C@@H](CC(C)C)C(=O)N[C@@H](CC1CCCCC1)C(=O)O [Peptide P20, Ac-Q Cha DL Cha] (Ac-Q[Cha]DL[Cha]-OH; C-terminus assumed)
A: 1 (yes)

Q: Field: below-cutoff. Rule: recorded IC50 strictly less than 0.6 µM. Subject: CC(=O)N[C@@H](CCC(N)=O)C(=O)N[C@@H](CC1CCCCC1)C(=O)N[C@@H](CC(=O)O)C(=O)N[C@@H](CC(C)C)C(=O)N[C@@H](Cc1ccc(Br)cc1)C(=O)O [Peptide P13, Ac-Gln-Cha-Asp-Leu-pBrPhe-OH] (Ac-Q[Cha]DL[Phe(4-Br)]-OH)
A: 1 (yes)

Q: Field: below-cutoff. Rule: recorded IC50 strictly less than 0.6 µM. Subject: CC(=O)N[C@@H](CCC(N)=O)C(=O)N[C@@H](CC1CCCCC1)C(=O)N[C@@H](CC(=O)O)C(=O)N[C@@H](CC(C)(C)C)C(=O)N[C@@H](Cc1ccccc1)C(=O)O [Peptide P19, Ac Q ChaD NptGly F] (Ac-Q[Cha]D[tBuAla]F-OH; C-terminus assumed)
A: 0 (no)

Q: Field: below-cutoff. Rule: recorded IC50 strictly less than 0.6 µM. Subject: CC(=O)N[C@@H](CCC(N)=O)C(=O)N[C@@H](CC1CCCCC1)C(=O)N[C@@H](CC(=O)O)C(=O)N[C@@H](CCC1CCCCC1)C(=O)N[C@@H](Cc1ccccc1)C(=O)O [Peptide P18, Ac Q Cha D hCha F] (Ac-Q[Cha]D[hCha]F-OH; C-terminus assumed)
A: 0 (no)
